Tested on: Salmonella Typhimurium ATCC 14028
Assay details: Antibacterial activity: growth inhibition, OD600 after 24 h (GIC50)
Assay type: cell-based
Cond: Salmonella enterica; 25° C.
Metric name: IC50

# IC50 of CSc1ccc(C2(O)C[n+]3cccnc3N2C2CCCCC2)cc1 (stereo not shown) [R1=Cyclohexyl, R3=4-MeS—Ph, R4=H] = 100 to 200 µM

Recorded IC50 (molecule OC1(c2ccc(-c3ccccc3)cc2)C[n+]2cccnc2N1C1CCCC1.[Br-] (stereo not shown) [R1=Cyclopentyl, R3=4-biphenylyl, R4=H] ): 25 to 50 µM

Entry CC1[n+]2cccnc2N(c2ccccc2)C1(O)c1ccc(Br)cc1 (stereo not shown) [R1=Ph, R3=4-Br—Ph, R4=Me] — recorded IC50 = 50 to 100 µM

The recorded IC50 for entry CCCCN1c2nccc[n+]2CC1(O)C(c1ccccc1)c1ccccc1 (stereo not shown) [R1=n-butyl, R3=dimethylphenyl, R4=H] equals 50 to 100 µM

* * *

Tested on: S. Typhimurium ATCC14028
Assay details: Static peg assay for prevention of biofilm formation (Calgary device, crystal violet)
Assay type: cell-based, Salmonella Typhimurium
Cond: 25° C., Table 16; read-out: S. Typhimurium IC50 (biofilm formation)
Metric name: pIC50
Would you please state pIC50, meaning minus log10 of the concentration in mol/L, as a bare number?

Entry CCCCCCCCCCN1c2nccc[n+]2CC1(O)c1ccc([N+](=O)[O-])cc1 (stereo not shown) [Compound 36] ; pIC50 = 5.00

Briefly, pIC50 measured for CCCCCCN1c2nccc[n+]2CC1(O)c1ccc(Cl)cc1 (racemic) [Compound 19] : 4.86

Just so you know, measured pIC50 for CCCCCCCCN1c2nccc[n+]2CC1(O)c1ccc(OC)cc1 (stereo not shown) [Compound 46] came out at 4.98

pIC50 measured on CCCCCCCCN1c2nccc[n+]2CC1(O)c1ccccc1 (racemic) [Compound 8] = 5.01

* * *

Hi there, I'd appreciate the recorded IC50 for every entry that follows.
Tested on: S. Typhimurium ATCC14028
Assay details: Static peg assay for prevention of biofilm formation (Calgary device, crystal violet)
Type: cell-based, Salmonella Typhimurium
Cond: 25° C., 24 hours, Table 15; read-out: (1) IC50 (biofilm inhibition)
Give your result in µM as a bare value.

Documented IC50 of CCCCCCCCN1c2nccc[n+]2CC1(O)c1ccc(S(C)(=O)=O)cc1 (centres unmarked) [Compound 54] : 60.3

IC50 for CCCCCCCCCN1c2nccc[n+]2CC1(O)c1ccccc1 (racemic) [Compound 9] is 8.26

Measured IC50 of CCCCCCCCN1c2nccc[n+]2CC1(O)c1ccccc1 (racemic) [Compound 8] : 9.77

The recorded IC50 for CCCCCCCCCCN1c2nccc[n+]2CC1(O)c1ccc(-c2ccc(-c3ccc([N+](=O)[O-])cc3)cc2)cc1 (racemic) is 525

The reported value for CCCCCCCCCCN1c2nccc[n+]2CC1(O)c1ccc(F)cc1 (centres unmarked) [Compound 40] in terms of IC50 is 20

# compound CCCCCCCCCCCCCN1c2nccc[n+]2CC1(O)c1ccc(Cl)cc1 (racemic) [Compound 26] ; its IC50 = 316

Value of measured IC50 for the entry CCCCCCN1c2nccc[n+]2CC1(O)c1ccc([N+](=O)[O-])cc1.[Br-] (centres unmarked) [Compound 34] : 54.7

OC1(c2ccc(Cl)cc2)C[n+]2cccnc2N1C1CCCCCC1 (centres unmarked) [Compound 65] has a reported IC50 of 27.9

Measured IC50, CCCCCCCCN1c2nccc[n+]2CC1(O)c1ccc(F)cc1 (centres unmarked) [Compound 39] : 7.58

What the record says about CCCCCCCCCN1c2nccc[n+]2CC1(O)c1ccc(Cl)cc1 (racemic) [Compound 22] : IC50 is 18.3

# IC50 (compound: CCCCCCCCCCN1c2nccc[n+]2CC1(O)c1ccc(Cl)c(Cl)c1 (centres unmarked) [Compound 50] ) is 32.4

IC50 recorded for this compound, CCCCCCCCN1c2nccc[n+]2CC1(O)c1ccc(Cl)cc1 (racemic) [Compound 21] , is 6.98

Lab book: IC50 of CCCCCCCCN1c2nccc[n+]2CC1(O)c1ccc(-c2ccc([N+](=O)[O-])cc2)cc1 (centres unmarked) [Compound 53] noted as 31

CCCCCCCN1c2nccc[n+]2CC1(O)c1ccc(Cl)cc1 (racemic) [Compound 20] yielded IC50 of 6.67

Lab note: CCCCCCCCCCN1c2nccc[n+]2CC1(O)c1ccccc1 (racemic) [Compound 10] gave IC50 of 15

Input CCCCCCCCCCCN1c2nccc[n+]2CC1(O)c1ccccc1 (racemic) [Compound 11] . Output IC50: 24.6

Entry CCCCCCCCCCCCN1c2nccc[n+]2CC1(O)c1ccccc1 (racemic) [Compound 12] ; IC50 = 27.5

Short answer for CCCCCCN1c2nccc[n+]2CC1(O)c1ccc(Cl)cc1 (racemic) [Compound 19] : IC50 was 13.7

The compound listed as CCCCCCCCCCCN1c2nccc[n+]2CC1(O)c1ccc(Cl)cc1 (racemic) [Compound 24] has a reported IC50 of 61.9

For this compound ( CCCCCCCCCCCCN1c2nccc[n+]2CC1(O)c1ccc(Cl)cc1 (racemic) [Compound 25] ), measured IC50 is 122

For this compound ( CCCCCCCCCCN1c2nccc[n+]2CC1(O)c1ccc(Cl)cc1 (racemic) [Compound 23] ), measured IC50 is 51.3

Given item CCCCCCN1c2nccc[n+]2CC1(O)c1ccccc1 (racemic) [Compound 6] , the value recorded as its IC50 is 102

The measured IC50 associated with CCCCCCCCCCCCCN1c2nccc[n+]2CC1(O)c1ccccc1 (racemic) [Compound 13] reads 81.6

The compound listed as OC1(c2ccccc2)C[n+]2cccnc2N1C1CCCCCCC1 (centres unmarked) [Compound 60] shows IC50 equal to 58.4
